molecular target: human recombinant ETA receptor (Homo sapiens); construct: expressed in transfected cells; host or cells: CHO cells (microsomal membranes); assay: Inhibition of [125I]ET-1 binding to membranes from CHO cells carrying human ETA receptors
Sequence (P25101 21-427): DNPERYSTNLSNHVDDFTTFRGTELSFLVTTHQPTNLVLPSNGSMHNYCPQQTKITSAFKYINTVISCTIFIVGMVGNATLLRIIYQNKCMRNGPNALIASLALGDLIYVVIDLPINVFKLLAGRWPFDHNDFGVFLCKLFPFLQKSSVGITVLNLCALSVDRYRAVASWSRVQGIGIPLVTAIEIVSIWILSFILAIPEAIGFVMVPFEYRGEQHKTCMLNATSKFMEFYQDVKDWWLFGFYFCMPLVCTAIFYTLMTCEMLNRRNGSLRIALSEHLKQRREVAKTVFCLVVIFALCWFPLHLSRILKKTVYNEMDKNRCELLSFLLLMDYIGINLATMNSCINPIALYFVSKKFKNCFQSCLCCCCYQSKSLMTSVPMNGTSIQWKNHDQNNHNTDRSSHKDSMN
Classification by IC50 | ranges: group A: < 4 nM; group B: ≥ 4 nM and < 20 nM; group C: ≥ 20 nM

Before answering, review these 8 worked examples.
Tag the class for Cc1ccc(NS(=O)(=O)Nc2ncnc(OCCOc3ncc(Br)cn3)c2-c2ccc(C)cc2)cc1
group C

Hi there! Could you help me figure out the category for COc1ccccc1Oc1c(NS(=O)(=O)NCc2ccc(Cl)cc2)nc(-c2ncccn2)nc1OCCOc1ncc(Br)cn1 please?
group B

Exam item: assign COc1ccccc1Oc1c(NS(=O)(=O)NCc2ccccn2)nc(-c2ncccn2)nc1OCCOc1ncc(SC)cn1 to the correct category.
group B

# bin lookup: classify CCNS(=O)(=O)Nc1ncnc(OCCOc2ncc(Br)cn2)c1-c1ccc(Cl)cc1 by its IC50
group A

Assign a bin to COc1ccccc1Oc1c(NS(=O)(=O)NCc2ccc3c(c2)OCO3)nc(-c2ccncc2)nc1OC
group B

Kindly identify the class of COc1ccccc1Oc1c(NS(=O)(=O)NCc2ccccc2)ncnc1OCCOC(=O)Nc1ccccn1 .
group A

Which bin, given its IC50, does COc1ccccc1Oc1c(NS(=O)(=O)NCc2ccccc2)nc(-c2ncccn2)nc1OCCOC(=O)Nc1cnccn1 occupy?
group A

Kindly state the category for this molecule: COc1ccccc1Oc1c(NS(=O)(=O)NCc2ccccn2)nc(C2CC2)nc1OCCOc1ncc(Br)cn1
group C

More entries:
Kindly identify the class of COc1ccccc1Oc1c(NS(=O)(=O)NCc2ccccc2)nc(-c2ccnc(-c3nnn[nH]3)c2)nc1OC .
group B

Lab note: which band did COc1ccccc1Oc1c(NS(=O)(=O)NCc2ccccc2)nc(S(C)(=O)=O)nc1OCCO land in?
group C

Record COc1ccccc1Oc1c(NS(=O)(=O)NCc2cccs2)nc(-c2ccncc2)nc1OCCOc1ncc(Br)cn1 — which class?
group B

Band for the recorded IC50 of COc1ccccc1Oc1c(NS(=O)(=O)NCc2ccccc2)ncnc1OCCOc1ncc(SC)cn1 ?
group A

Category of COc1cnc(OCCOc2nc(-c3ccncc3)nc(NS(=O)(=O)NCc3ccccc3)c2-c2ccc(Cl)cc2)nc1 , please.
group B

Which IC50 category applies to COc1ccccc1CNS(=O)(=O)Nc1nc(-c2ncccn2)nc(OCCOC(=O)Nc2ccccc2)c1Oc1ccccc1OC here?
group A

Which class holds CCNS(=O)(=O)Nc1nc(-c2ncccn2)nc(OCCOc2ncc(Br)cn2)c1Oc1ccccc1OC ?
group C
